The reported measurements were obtained from PubChem BioAssay (NCI).

test system: SNB-19 CNS; experiment: NCI-60 one-dose screen, 48 h; details: 10 µM unless noted
Compounds without any hit were thinned out: in the full panel of roughly 83,000, 20% have a hit. Active and inactive are the calls of the source. How the source made its calls: active means growth percent below 10; inactive means the rest.
Returns: one label drawn from active, inactive

CC1(C)CC(=O)C2=C(C1)N(c1ccc(F)cc1F)C(N)=C(C#N)C2c1cc(Br)ccc1F (stereo not drawn) :: inactive
O=C(Cn1c[n+](CC(=O)c2ccc(-c3ccccc3)cc2)c2ccccc21)Nc1cccc2cccnc12 :: active
COc1cc(-c2cc(-c3ccc(N(C)C)cc3)nc(N3CCOCC3)c2C#N)cc(OC)c1OC :: inactive
COc1cc(C(=O)Nc2cc3c(cc2Oc2cc(C)cc(C)c2)C(=O)N(C)[C@@H](CC(=O)N(C)O)C(=O)N3)c(Br)c(OC)c1OC :: active

Exam item: Test call for this compound, please: `Cc1cnc(C(=O)Nc2nc3ccc(S(=O)(=O)Nc4ccc(C(C)(C)C)cc4)cc3[nH]2)cn1`
Marked response: inactive

Exam item: I would be grateful if you could indicate the recorded call for CN1CCC(=C(c2ccccc2)c2ccccc2)C(c2ccccc2)C1 (stereo not drawn) .
Marked response: inactive

Exam item: Please share the test call associated with NC(=S)N1N=C(c2ccccc2)CC1c1cn(-c2ccccc2)nc1-c1ccc(OCc2ccccc2)cc1 (stereo not drawn) .
Marked response: inactive

Exam item: Returns: the outcome recorded for `O=C1/C=C/[C@@H](O)[C@@H]2C[C@@H](O)C[C@H]2/C=C/CCC[C@H](CCc2cccc3ccccc23)O1` in this assay.
Marked response: inactive

###

Test system: SNB-75 CNS
Test: NCI-60 one-dose screen, 48 h (100 = growth as untreated, 0 = no growth, -100 = all killed)
Details: 10 µM unless noted
Protocol: Growth inhibition of the SNB-75 human tumor cell line is measured as a screen for anti-cancer activity. Cells are grown in 96 well plates and exposed to the test compound for 48 hours. Compounds are tested at a single concentration, which is 10^-5 M for most compounds. The reported endpoint is percent growth (GI% or GIPRCNT), where numbers from 0 - 100% represent growth inhibition, and numbers from -100% - 0 represent cell death. For example, a value of 40 represents 60% growth inhibition. […]
The panel holds about 83,000 compounds, 20% with a hit somewhere; the sample as a whole holds those more often.
Assign class by growth: not lower than 30% means TRUE; lower than 30% means FALSE.

Here are 4 compounds together with their reported answers.
O=C(O)c1ccc2c(c1)C(=O)N(Cc1ccccc1)C2=O :: TRUE
COc1cc2nc(-c3ccc(Cl)cc3)cc(OCCCN3CCCC3)c2cc1OC :: FALSE
CC(C)N1C(=O)S/C(=C2/SC(=O)N(C(C)C)C2=O)C1=O :: TRUE
COC(=O)N[C@H]1CCc2c(Cl)c(OC)c(OC)c(OC)c2-c2ccc(SC)c(=O)cc21 :: FALSE

Consider now this further compound.
Exam item: Given `COc1ccc(C(=O)c2cc(C)c(OC)c(C)c2)c(OC)c1NC(C)=O` , state whether its growth is at least 30%.
Marked response: TRUE

###

Consider the following compounds; for each one, report its growth.
test system: SW-620 colon; assay: NCI-60 one-dose screen, 48 h (100 = growth as untreated, 0 = no growth, -100 = all killed); details: 10 µM unless noted
Compounds without any hit were thinned out: in the full panel of roughly 83,000, 20% have a hit.
One number for each entry, in %.

CCOC(=O)[C@@H]1CCCN(S(=O)(=O)c2ccc(S(=O)(=O)N(CC)CC)c(F)c2)C1 :: 86.6

Please give growth, item by item, for the list that follows.
1. O=C1c2ccc3c4c(ccc(c24)C(=O)N1CCCNCc1ccccc1)C(=O)N(CCCNCc1ccccc1)C3=O
2. O=C1Nc2cc(-c3ccc(NC(=O)C4CC4)cc3)ccc2/C1=C/c1ccc[nH]1
3. O=C1Nc2ccccc2/C1=C\c1c(-c2ccccc2)nc2ccccn12
4. Cc1cc(C)c(S(=O)(=O)Oc2ccccc2[N+](=O)[O-])c(C)c1
5. O=C1c2cccc3c(-c4ccc5c(c4)ncn5C4CCCCC4)ccc(c23)C(=O)N1c1nc2ccccc2s1
6. Cn1c2ccccc2c2c3c(c4c5ccccc5n(C)c4c21)C(=O)OC3

Marked response:
-81.8
113
21.2
8.04
108
88
